Numbers sourced from the Human Domainome abundance scans (Beltran et al. 2025).

B1: Zinc finger homeobox protein 3, residues 2643 to 2698; numbered along this chain, Q15911 (parent)
chain: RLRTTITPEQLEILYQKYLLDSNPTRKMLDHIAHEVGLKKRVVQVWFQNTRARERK

Variants of: B1
Assay: abundance fitness (aPCA) (normalised: wild type 0, dead -1); higher = more abundant; growth selection in yeast, the domain comes from the species named
Details: Homo sapiens
Label rule, in plain words: abundance fitness of -0.2 and up is YES, under -0.2 is NO.

Observe how each entry below is paired with its result.
{"mutation notation": "V36S", "label value": "YES"}
{"mutation notation": "T25Y", "label value": "NO"}

Test whether the variant Q48E records abundance fitness of -0.2 or higher.
YES

Does P8A have a reported abundance fitness of at least -0.2?
YES

Please indicate if the recorded abundance fitness for F47W meets or exceeds -0.2.
YES

Exam item: decide whether the reported abundance fitness for W46L is at least -0.2.
NO

Is reported abundance fitness greater than or equal to -0.2 here: K27T
YES

Could you verify whether the entry K27P shows abundance fitness of no less than -0.2?
YES

Does abundance fitness meet or surpass -0.2 for T5W ?
YES
